- target.desc: human sodium channel Nav 1.7 (Homo sapiens (Human), UniProt Q15858)
- Sequence (Q15858 whole entry): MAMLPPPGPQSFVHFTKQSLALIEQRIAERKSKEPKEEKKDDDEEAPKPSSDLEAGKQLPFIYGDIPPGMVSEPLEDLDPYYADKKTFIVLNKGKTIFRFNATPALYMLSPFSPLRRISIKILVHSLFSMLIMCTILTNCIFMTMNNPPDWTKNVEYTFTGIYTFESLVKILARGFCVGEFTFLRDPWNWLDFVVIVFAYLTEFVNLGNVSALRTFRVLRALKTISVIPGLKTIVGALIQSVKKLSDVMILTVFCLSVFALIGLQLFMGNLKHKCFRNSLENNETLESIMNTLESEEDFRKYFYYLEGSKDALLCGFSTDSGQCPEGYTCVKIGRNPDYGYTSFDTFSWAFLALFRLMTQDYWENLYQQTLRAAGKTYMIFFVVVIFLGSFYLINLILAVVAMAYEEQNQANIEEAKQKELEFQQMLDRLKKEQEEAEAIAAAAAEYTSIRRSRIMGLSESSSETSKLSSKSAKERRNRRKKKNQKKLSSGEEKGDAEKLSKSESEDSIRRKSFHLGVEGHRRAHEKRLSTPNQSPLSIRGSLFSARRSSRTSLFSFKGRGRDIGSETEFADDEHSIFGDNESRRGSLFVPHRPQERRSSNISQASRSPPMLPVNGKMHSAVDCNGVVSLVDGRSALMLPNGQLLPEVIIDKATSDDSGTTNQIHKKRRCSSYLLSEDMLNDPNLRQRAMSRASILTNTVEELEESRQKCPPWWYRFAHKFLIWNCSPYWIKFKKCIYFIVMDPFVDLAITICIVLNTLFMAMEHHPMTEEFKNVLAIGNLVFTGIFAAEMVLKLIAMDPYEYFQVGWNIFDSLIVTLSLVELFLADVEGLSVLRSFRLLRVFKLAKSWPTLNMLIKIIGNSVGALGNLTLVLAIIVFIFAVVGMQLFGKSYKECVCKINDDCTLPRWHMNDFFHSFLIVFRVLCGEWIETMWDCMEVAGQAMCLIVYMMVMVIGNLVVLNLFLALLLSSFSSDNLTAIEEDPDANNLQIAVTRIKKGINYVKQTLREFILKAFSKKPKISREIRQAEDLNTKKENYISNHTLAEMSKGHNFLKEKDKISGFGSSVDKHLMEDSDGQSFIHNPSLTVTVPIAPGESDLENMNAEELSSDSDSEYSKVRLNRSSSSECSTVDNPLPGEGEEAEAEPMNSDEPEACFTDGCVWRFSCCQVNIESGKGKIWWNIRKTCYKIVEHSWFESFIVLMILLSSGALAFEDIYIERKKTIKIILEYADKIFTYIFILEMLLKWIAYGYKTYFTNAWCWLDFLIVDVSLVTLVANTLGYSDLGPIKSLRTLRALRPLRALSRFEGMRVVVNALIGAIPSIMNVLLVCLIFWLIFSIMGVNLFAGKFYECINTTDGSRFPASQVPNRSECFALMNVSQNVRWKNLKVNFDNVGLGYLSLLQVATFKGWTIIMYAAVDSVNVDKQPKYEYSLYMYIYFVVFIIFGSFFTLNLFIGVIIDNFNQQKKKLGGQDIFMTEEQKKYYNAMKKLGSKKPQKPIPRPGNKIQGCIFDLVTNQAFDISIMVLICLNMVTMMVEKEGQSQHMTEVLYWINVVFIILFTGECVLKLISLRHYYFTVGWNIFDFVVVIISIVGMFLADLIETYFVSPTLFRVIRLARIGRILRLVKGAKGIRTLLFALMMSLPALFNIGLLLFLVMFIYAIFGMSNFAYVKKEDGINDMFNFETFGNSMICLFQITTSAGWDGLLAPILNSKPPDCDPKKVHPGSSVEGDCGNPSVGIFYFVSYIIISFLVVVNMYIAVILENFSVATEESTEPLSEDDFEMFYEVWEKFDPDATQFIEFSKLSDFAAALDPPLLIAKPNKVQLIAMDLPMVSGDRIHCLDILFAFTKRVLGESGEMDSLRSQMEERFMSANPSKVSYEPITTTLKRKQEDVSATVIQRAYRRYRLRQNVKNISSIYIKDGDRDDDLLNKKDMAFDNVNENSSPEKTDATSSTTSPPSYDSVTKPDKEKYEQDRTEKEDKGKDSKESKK
- assay: Automated whole-cell voltage-clamp (ScreenPatch 384P), Nav 1.7 sodium current, Protocol 2
- Type: cell-based
- conditions: read-out: Nav1.7 IC50
pIC50: −log10 of the molar value.
measure: pIC50

a = COc1ccc(-c2cncc(C(=O)N/N=C/C3CCCCCC3)n2)cc1 [Compound 181]
b = CCOc1ccc(-c2cncc(C(=O)N/N=C/c3cccc(OC)c3)n2)c(OC)c1 [Compound 108]
Task for the reader: decide whether a or b has the larger pIC50. // return label of chosen record
b
(b: 7.51, a: 5.19)

---

- target.desc: human sodium channel Nav 1.7 (Homo sapiens (Human), UniProt Q15858)
- assay: Automated whole-cell voltage-clamp (ScreenPatch 384P), Nav 1.7 sodium current, Protocol 2
- Type: cell-based
- conditions: read-out: Nav1.7 IC50
measure: IC50 (nM)

Here is how some molecules turned out for IC50.
INSERT INTO results (query_smiles, data_value) VALUES
  ('COc1ccc(-c2cncc(C(=O)N/N=C/c3ccccc3C)n2)cc1', 1380),
  ('COc1ccc(-c2cncc(C(=O)N/N=C/c3ccc(N(C)C)cc3)n2)cc1', 8160),
  ('CCOc1ccc(-c2cncc(C(=O)N/N=C/c3ccccc3OC)n2)cc1', 322),
  ('COc1cc(/C=N/NC(=O)c2cncc(-c3ccc(OCC(C)C)cc3Cl)n2)cc(OC)c1', 217),
  ('CCOc1ccc(-c2cncc(C(=O)N/N=C/c3cccc(OC)c3)n2)c(OC(C)C)c1', 1390);

P = COc1cc(/C=N/NC(=O)c2cncc(-c3ccc(OC4CCCCC4)cc3)n2)cc(OC)c1
Q = COc1ccc(-c2cncc(C(=O)N/N=C/c3ccc(Cl)cc3)n2)cc1
R = CCOc1ccc(-c2cncc(C(=O)N/N=C/c3cc(OC)ccc3OC)n2)cc1
S = COc1ccc(-c2cncc(C(=O)N/N=C/c3ccc(OC)c(OC)c3OC)n2)cc1
T = CCCOc1cc(/C=N/NC(=O)c2cncc(-c3ccc(OCC)cc3OC)n2)cc(OC)c1
Arrange these molecules by their IC50, starting with the largest number. Field: ranking. Enter the labels in the order requested.
Q, S, R, P, T

---

- target.desc: human sodium channel Nav 1.8 (Homo sapiens (Human))
- Sequence (Q9Y5Y9 whole entry): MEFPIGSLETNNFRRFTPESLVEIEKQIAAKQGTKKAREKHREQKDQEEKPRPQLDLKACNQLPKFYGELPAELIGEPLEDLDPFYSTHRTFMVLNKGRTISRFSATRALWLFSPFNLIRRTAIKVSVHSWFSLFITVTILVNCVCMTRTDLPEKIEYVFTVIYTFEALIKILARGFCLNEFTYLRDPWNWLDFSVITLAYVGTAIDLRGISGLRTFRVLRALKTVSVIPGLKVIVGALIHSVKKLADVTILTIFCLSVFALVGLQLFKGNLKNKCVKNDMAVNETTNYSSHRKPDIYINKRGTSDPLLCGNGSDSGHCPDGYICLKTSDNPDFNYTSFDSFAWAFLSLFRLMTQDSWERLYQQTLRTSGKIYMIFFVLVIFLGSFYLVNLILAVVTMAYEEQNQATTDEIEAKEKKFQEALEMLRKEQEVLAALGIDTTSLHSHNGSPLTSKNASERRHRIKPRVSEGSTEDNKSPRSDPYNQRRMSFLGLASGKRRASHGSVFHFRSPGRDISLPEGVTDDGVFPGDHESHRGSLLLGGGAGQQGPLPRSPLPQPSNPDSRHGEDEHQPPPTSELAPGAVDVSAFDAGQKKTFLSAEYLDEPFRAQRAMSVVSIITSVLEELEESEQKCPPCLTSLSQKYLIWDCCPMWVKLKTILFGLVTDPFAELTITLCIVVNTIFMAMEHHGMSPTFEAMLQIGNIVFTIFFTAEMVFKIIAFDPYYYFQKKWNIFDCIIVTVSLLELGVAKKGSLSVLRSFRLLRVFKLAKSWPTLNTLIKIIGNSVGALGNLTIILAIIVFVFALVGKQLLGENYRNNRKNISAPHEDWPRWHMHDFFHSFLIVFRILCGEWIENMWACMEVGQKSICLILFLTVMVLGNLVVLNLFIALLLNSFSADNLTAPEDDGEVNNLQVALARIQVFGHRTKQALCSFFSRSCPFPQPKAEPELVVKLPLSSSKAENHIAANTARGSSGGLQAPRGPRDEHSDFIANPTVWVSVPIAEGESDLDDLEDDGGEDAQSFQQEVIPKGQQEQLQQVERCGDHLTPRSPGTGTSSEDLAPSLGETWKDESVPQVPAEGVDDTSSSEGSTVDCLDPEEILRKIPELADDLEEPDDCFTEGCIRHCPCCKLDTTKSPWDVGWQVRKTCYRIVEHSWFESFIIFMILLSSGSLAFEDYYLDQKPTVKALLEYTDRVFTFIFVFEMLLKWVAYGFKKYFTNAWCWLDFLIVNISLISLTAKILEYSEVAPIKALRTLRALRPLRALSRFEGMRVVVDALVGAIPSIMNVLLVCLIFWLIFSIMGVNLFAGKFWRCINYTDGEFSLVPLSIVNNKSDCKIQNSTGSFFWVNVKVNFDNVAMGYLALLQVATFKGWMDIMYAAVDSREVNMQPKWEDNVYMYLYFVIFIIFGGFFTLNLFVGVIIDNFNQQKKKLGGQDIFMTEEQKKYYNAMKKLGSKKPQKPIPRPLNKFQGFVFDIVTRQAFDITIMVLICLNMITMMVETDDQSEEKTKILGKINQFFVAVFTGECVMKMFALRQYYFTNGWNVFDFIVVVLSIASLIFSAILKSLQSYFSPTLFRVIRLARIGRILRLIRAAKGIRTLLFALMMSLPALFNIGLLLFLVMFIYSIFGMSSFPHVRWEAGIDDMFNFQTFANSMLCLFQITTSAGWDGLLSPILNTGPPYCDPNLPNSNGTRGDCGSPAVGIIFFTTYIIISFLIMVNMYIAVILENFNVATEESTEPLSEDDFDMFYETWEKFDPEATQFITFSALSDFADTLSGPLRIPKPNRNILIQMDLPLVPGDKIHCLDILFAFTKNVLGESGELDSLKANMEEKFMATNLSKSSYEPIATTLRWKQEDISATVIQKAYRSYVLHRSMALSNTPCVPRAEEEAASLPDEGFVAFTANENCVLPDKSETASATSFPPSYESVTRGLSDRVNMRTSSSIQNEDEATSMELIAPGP
- assay: Automated whole-cell voltage-clamp (ScreenPatch 384P), Nav 1.8 sodium current, Protocol 2
- Assay type: cell-based
- conditions: read-out: Nav1.8 IC50
measure: IC50 (nM)

I = CCCOc1cc(/C=N/NC(=O)c2cncc(-c3ccc(OCC)cc3OC)n2)cc(OC)c1 [Compound 106]
II = COc1cc(/C=N/NC(=O)c2cncc(-c3ccc(OC)cc3OC(F)(F)F)n2)cc(OC)c1 [Compound 112]
Task for the reader: decide whether I or II has the larger IC50. // return label of chosen record
II
(II: 966 nM, I: 90.2 nM)

a = COc1ccc(-c2cncc(C(=O)N/N=C/c3cccc(C(F)(F)F)c3)n2)cc1 [Compound 56]
b = COc1ccc(-c2cncc(C(=O)N/N=C/c3cccc(OC(C)C)c3)n2)cc1 [Compound 41]
c = COc1ccc(-c2cncc(C(=O)N/N=C/C3CCCCCC3)n2)cc1 [Compound 181]
d = Cc1cc(C)cc(/C=N/NC(=O)c2cncc(-c3ccc(OCC(C)C)cc3)n2)c1 [Compound 86]
Arrange these molecules by their IC50, starting with the largest number. Field: ranking. Enter the labels in the order requested.
a, c, d, b
(a: 462 nM, c: 320 nM, d: 209 nM, b: 94.5 nM)
